target: HLA-B*15:17; experiment: IEDB peptide-MHC binding, purified MHC/direct/fluorescence; filed as Kd, often an IC50 or EC50 that approximates it; bounds were set here for any values at or beyond the usual limits of such assays; details: source organism: Francisella tularensis subsp. holarctica LVS
pKd: −log10 of the molar value.
recordedEndpoint: pKd

What pKd value was documented for this sequence, REMGIVDLL ?
≤ 4.70

====

Hi there, I'd appreciate the recorded Kd for every entry that follows.
target: HLA-B*40:01; experiment: IEDB peptide-MHC binding, purified MHC/competitive/radioactivity; filed as Kd, often an IC50 or EC50 that approximates it; bounds were set here for any values at or beyond the usual limits of such assays; details: source organism: SARS coronavirus Tor2
One number for each entry, in nM.

Examples with their reported Kd follow.
1. KEGFFTYLCG ... 1640
2. YECLYRNRDV ... 2410
3. AEMDGIQYG ... 2020
4. SEETGTLIV ... 1930
5. LEWLAEVVKL ... 104

Hi team, please reply with Kd for each item in this list.
1. KENDSKEGFF
2. SELVIGAVII
3. YEQYIKWPWY
4. GEDIQLLKA

1: 2690; 2: 684; 3: 1220; 4: 7550

====

molecular target: HLA-B*46:01; assay: IEDB peptide-MHC binding, purified MHC/competitive/fluorescence; filed as Kd, often an IC50 or EC50 that approximates it; bounds were set here for any values at or beyond the usual limits of such assays; conditions: source organism: Mycobacterium tuberculosis variant bovis BCG str. Pasteur 1173P2
recordedEndpoint: Kd

What Kd value was documented for this sequence, RLAPEPVYT ?
≥ 20 µM

====

biological target: HLA-A*68:02; test: IEDB peptide-MHC binding, purified MHC/competitive/fluorescence; filed as Kd, often an IC50 or EC50 that approximates it; bounds were set here for any values at or beyond the usual limits of such assays; conditions: source organism: Entamoeba dispar SAW760
recordedEndpoint: Kd

State its Kd on HLA-A*68:02: FELLHFISS
≥ 20 µM

====

target: HLA-A*26:01; assay: IEDB peptide-MHC binding, purified MHC/direct/fluorescence; filed as Kd, often an IC50 or EC50 that approximates it; bounds were set here for any values at or beyond the usual limits of such assays; conditions: source organism: Vibrio parahaemolyticus AQ3810
pKd: −log10 of the molar value.
recordedEndpoint: pKd

What pKd value was documented for this sequence, MQGKDFNHL ?
≤ 4.70

====

molecular target: HLA-A*02:01; assay: IEDB peptide-MHC binding, purified MHC/direct/fluorescence; filed as Kd, often an IC50 or EC50 that approximates it; bounds were set here for any values at or beyond the usual limits of such assays; conditions: source organism: Yellow fever virus
recordedEndpoint: Kd

State its Kd on HLA-A*02:01: ERWFVRNPF
≥ 20 µM

====

target: HLA-A*26:01; test: IEDB peptide-MHC binding, purified MHC/competitive/radioactivity; filed as Kd, often an IC50 or EC50 that approximates it; bounds were set here for any values at or beyond the usual limits of such assays; conditions: source organism: Mammarenavirus lassaense
Hi there, I'd appreciate the recorded Kd for every entry that follows.

Examples with their reported Kd follow.
1. VGRAWENTI ... ≥ 77.9 µM
2. YEEFCNAVY ... ≥ 77.9 µM

Alright, here's another sequence for you.
What Kd value was documented for this sequence, PEDPVEVALY ?
≥ 69.7 µM

====

target: HLA-A*31:01; assay: IEDB peptide-MHC binding, purified MHC/direct/fluorescence; filed as Kd, often an IC50 or EC50 that approximates it; bounds were set here for any values at or beyond the usual limits of such assays; conditions: source organism: Mammarenavirus lassaense
pKd: −log10 of the molar value.
recordedEndpoint: pKd

What pKd value was documented for this sequence, SHGIDVTDL ?
≤ 4.70

====

target: HLA-B*46:01; experiment: IEDB peptide-MHC binding, purified MHC/direct/fluorescence; filed as Kd, often an IC50 or EC50 that approximates it; bounds were set here for any values at or beyond the usual limits of such assays; conditions: source organism: Mammarenavirus juninense
pKd: −log10 of the molar value.
recordedEndpoint: pKd

State its pKd on HLA-B*46:01: FRRVAHSSL
≤ 4.70

====

molecular target: HLA-B*15:01; assay: IEDB peptide-MHC binding, purified MHC/direct/fluorescence; filed as Kd, often an IC50 or EC50 that approximates it; bounds were set here for any values at or beyond the usual limits of such assays; settings: source organism: West Nile virus
pKd: −log10 of the molar value.
recordedEndpoint: pKd

What pKd value was documented for this sequence, LYAVTTAVL ?
≤ 4.70

====

biological target: HLA-A*24:02; assay: IEDB peptide-MHC binding, purified MHC/competitive/radioactivity; filed as Kd, often an IC50 or EC50 that approximates it; bounds were set here for any values at or beyond the usual limits of such assays; settings: source organism: Mammarenavirus brazilense
Hi there, I'd appreciate the recorded Kd for every entry that follows.

1. LSHLSLGLI ... ≥ 21 µM

Alright, here's another sequence for you.
What Kd value was documented for this sequence, DEALRGFLLY ?
≥ 37.5 µM

====

target: HLA-A*02:11; assay: IEDB peptide-MHC binding, purified MHC/direct/fluorescence; filed as Kd, often an IC50 or EC50 that approximates it; bounds were set here for any values at or beyond the usual limits of such assays; conditions: source organism: Reston ebolavirus
recordedEndpoint: Kd

What Kd value was documented for this sequence, ITDEINQIK ?
≥ 20 µM

====

Hi there, I'd appreciate the recorded Kd for every entry that follows.
target: HLA-B*07:02; assay: IEDB peptide-MHC binding, purified MHC/competitive/radioactivity; filed as Kd, often an IC50 or EC50 that approximates it; bounds were set here for any values at or beyond the usual limits of such assays; details: source organism: Triticum aestivum
Give bare numbers, in nM.

Examples with their reported Kd follow.
1) QPYLQLQPFL ... 632
2) QPLSQVSF ... 6870
3) LPAMCNVYI ... 685

Alright, here's another sequence for you.
What Kd value was documented for this sequence, LPYPQPQL ?
109

====

target: HLA-B*51:01; experiment: IEDB peptide-MHC binding, purified MHC/competitive/fluorescence; filed as Kd, often an IC50 or EC50 that approximates it; bounds were set here for any values at or beyond the usual limits of such assays; details: source organism: Orthohantavirus sinnombreense
recordedEndpoint: Kd

What Kd value was documented for this sequence, YLQAKSQVL ?
≥ 20 µM

====

target: HLA-A*29:02; assay: IEDB peptide-MHC binding, purified MHC/direct/fluorescence; filed as Kd, often an IC50 or EC50 that approximates it; bounds were set here for any values at or beyond the usual limits of such assays; conditions: source organism: Corynebacterium diphtheriae
recordedEndpoint: Kd

What Kd value was documented for this sequence, VERRLVKVL ?
≥ 20 µM

====

Hi there, I'd appreciate the recorded pKd for every entry that follows.
molecular target: HLA-A*02:03; assay: IEDB peptide-MHC binding, purified MHC/direct/fluorescence; filed as Kd, often an IC50 or EC50 that approximates it; bounds were set here for any values at or beyond the usual limits of such assays; conditions: source organism: Zaire ebolavirus
pKd: −log10 of the molar value.

1. LEFNSSLAI ... ≤ 4.70
2. GRYNLISPK ... ≤ 4.70

Alright, here's another sequence for you.
State its pKd on HLA-A*02:03: SLLHESTLK
≤ 4.70

====

target: HLA-C*03:03; assay: IEDB peptide-MHC binding, purified MHC/direct/fluorescence; filed as Kd, often an IC50 or EC50 that approximates it; bounds were set here for any values at or beyond the usual limits of such assays; conditions: source organism: Yersinia pestis Nepal516
recordedEndpoint: pKd
Answers are plain numbers, as −log10 of the molar value.

What pKd value was documented for this sequence, YRYCHQLAL ?
6.79

====

molecular target: HLA-A*68:01; assay: IEDB peptide-MHC binding, purified MHC/competitive/radioactivity; filed as Kd, often an IC50 or EC50 that approximates it; bounds were set here for any values at or beyond the usual limits of such assays; settings: source organism: Vaccinia virus LC16M8
recordedEndpoint: Kd
Express your answer as a number followed by its unit.

What Kd value was documented for this sequence, LFASADNHPK ?
264 nM

====

target: HLA-A*68:01; experiment: IEDB peptide-MHC binding, purified MHC/competitive/radioactivity; filed as Kd, often an IC50 or EC50 that approximates it; bounds were set here for any values at or beyond the usual limits of such assays; conditions: source organism: Lymphocytic choriomeningitis virus (strain Armstrong)
pKd: −log10 of the molar value.
Hi there, I'd appreciate the recorded pKd for every entry that follows.

1. NSESLSLISH ... ≤ 4.53

Alright, here's another sequence for you.
What pKd value was documented for this sequence, NYSKFWYLEH ?
≤ 4.15

====

molecular target: HLA-B*44:02; experiment: IEDB peptide-MHC binding, purified MHC/direct/fluorescence; filed as Kd, often an IC50 or EC50 that approximates it; bounds were set here for any values at or beyond the usual limits of such assays; settings: source organism: Brucella abortus
pKd: −log10 of the molar value.
recordedEndpoint: pKd

What pKd value was documented for this sequence, SRIGAWASK ?
≤ 4.70
